Data origin: patent US20210380703A1

test.system: human Fc (human)
method.description: ELISA; negative control
Hi there, I'd appreciate the recorded optical density for every entry that follows.

IN: What does the record list as optical density for 375_G07 (antibody, V domains shown) VH: EVQLLESGGGLVQPGGSLRLSCAASGFTFDSYSMNWVRQAPGKGLEWVAGINYNSGYTSYADSVKGRFTISRDNSKNTLYLQMNSLRAEDTAVYYCARSATWHDTHLDYWGQGTLVTVSS VL: DIQMTQSPSSLSASVGDRVTITCRASQSILSYLNWYQQKPGKAPKLVIYAATSLASGVPSRFSGSGSGTDFTLTISSLQPEDFATYYCQQSYDLPLTFGGGTKVEIK ?
OUT: 0.178 OD

IN: What do we get for 370_G12 (antibody, V domains shown) VH: EVQLLESGGGLVQPGGSLRLSCAASGFTFSSYSMNWVRQAPGKGLEWVAGINYNGGYKGYADSVKGRFTISRDNSKNTLYLQMNSLRAEDTAVYYCARSATWHDTALDYWGQGTLVTVSS VL: DIQMTQSPSSLSASVGDRVTITCRASQSIITYLNWYQQKPGKAPKLLIYAATSLASGVPSRFSGSGSGTDFTLTISSLQPEDFATYYCQQSDESPLTFGGGTKVEIK ?
OUT: 0.418 OD

IN: // query: 367_C03 (antibody, V domains shown) VH: EVQLLESGGGLVQPGGSLRLSCAASGFTFSSYSMNWVRQAPGKGLEWVANINYNGGYTGYADSVKGRFTISRDNSKNTLYLQMNSLRAEDTAVYYCARSATWHDTALDYWGQGTLVTVSS VL: DIQMTQSPSSLSASVGDRVTITCRASQSILSYVNWYQQKPGKAPKLVIYATTSRASGVPSRFSGSGSGTDFTLTISSLQPEDFATYYCQQSYENPLTFGGGTKVEIK
OUT: 0.275 OD
